Target: BRD4BD2 (Homo sapiens)
Experiment: BRD4 AlphaScreen competition assay (JQ1-biotin displacement), BRD4BD2
Assay type: binding
Parameter IC50: see the listing below.
Answer with a number only, understood to be in nM.

Query string: Bench note: what IC50 did Cc1sc2c(c1C)C(c1ccc(N)cc1)=N[C@@H](CC(=O)OC(C)(C)C)c1nnc(C)n1-2 show?
Result string: 4.29

Query string: How about Cc1sc2c(c1C)C(c1ccc(I)cc1)=N[C@@H](CC(=O)OC(C)(C)C)c1nnc(C)n1-2 ?
Result string: 4.96

###

Target: BRD4 (Homo sapiens)
Test: Washout experiment, Western blot of BRD4 degradation in K562 cells
Assay type: cell-based
Design: an 11 amino acid peptide knock-in tag to a protein-of-interest using CRISPR insertion; endogenous in cells
Details: K562, 1 μM, 4 h treatment, washout, 20 h compound-free vs 24 h no washout
endpoint-name: BRD4 degradation after washout compared to no washout (in words)

compound: Cc1sc2c(c1C)C(c1ccc(C#CCN)cc1)=N[C@@H](CC(=O)OC(C)(C)C)c1nnc(C)n1-2 [GNE011, reference compound]
experimental-value: nearly a complete rescue
//
compound: Cc1sc2c(c1C)C(c1ccc(C#CC(N)=O)cc1)=N[C@@H](CC(=O)OC(C)(C)C)c1nnc(C)n1-2
experimental-value: nearly a complete rescue
